# System: PC-3
# ASSAY_NAME: Cytotoxicity against human PC3 cells assessed as inhibition of cell proliferation/survival after 72 hrs by resazurin dye reduction assay
# Type: functional, cell-based
# CONDITION_CONTEXT: PC-3, 72 h
pIC50: −log10 of the molar value.

{"columns": ["SAMPLE_SMILES", "pIC50"],
 "data": [
  ["CC(=O)OC[C@]12CC[C@H]3[C@@H](CC=C4C=CCC(=O)[C@@]43C)[C@]1(O)CC[C@@]2(O)[C@@](C)(O)[C@H]1CC(C)=C(C)C(=O)O1", 5.51],
  ["CC(=O)OC[C@]12CC[C@H]3[C@@H](CC=C4CC=CC(=O)[C@@]43C)[C@]1(O)[C@@H](OC(C)=O)C[C@@]2(O)[C@@](C)(O)[C@H]1CC(C)=C(C)C(=O)O1", 5.70],
  ["CC(=O)OC[C@]12CC[C@H]3[C@@H](CC=C4CC=CC(=O)[C@@]43C)[C@]1(O)CC[C@@]2(O)[C@@](C)(O)[C@H]1CC(C)=C(C)C(=O)O1", 6.89],
  ["CC(=O)OC[C@]12CC[C@H]3[C@@H](C[C@H]4O[C@]45CC=CC(=O)[C@]35C)[C@]1(O)CC[C@@]2(O)[C@@](C)(O)[C@H]1CC(C)=C(C)C(=O)O1", 7.05]
]}

---

# Test system: MCF7
# ASSAY_NAME: Cytotoxicity against human MCF7 cells assessed as inhibition of cell proliferation/survival after 72 hrs by resazurin dye reduction assay
# Format: functional, cell-based
# CONDITION_CONTEXT: MCF7, 72 h
Measured IC50 values are reported for all entries that follow.
ASSAY_METRIC: IC50 (nM)

{"columns": ["SAMPLE_SMILES", "ASSAY_METRIC", "OPERATOR_SYMBOL", "VALUE_REPORTED"],
 "data": [
  ["CC(=O)OC[C@]12CC[C@H]3[C@@H](C[C@H]4O[C@]45CC=CC(=O)[C@]35C)[C@]1(O)CC[C@@]2(O)[C@@](C)(O)[C@H]1CC(C)=C(C)C(=O)O1", "IC50", "=", 210],
  ["CC(=O)OC[C@]12CC[C@H]3[C@@H](C[C@@H]4O[C@@]45CC=CC(=O)[C@]35C)[C@]1(O)CC[C@@]2(O)[C@@](C)(O)[C@H]1CC(C)=C(C)C(=O)O1", "IC50", "=", 1200],
  ["CC(=O)OC[C@]12CC[C@H]3[C@@H](CC=C4C=CCC(=O)[C@@]43C)[C@]1(O)[C@@H](OC(C)=O)C[C@@]2(O)[C@@](C)(O)[C@H]1CC(C)=C(C)C(=O)O1", "IC50", ">", 5000]
]}

---

# ASSAY_NAME: Toxicity in SCID mouse assessed as change in body weight measured every 3 to 5 days up to 18 days
# Assay type: organism-based
# CONDITION_CONTEXT: in vivo

{"columns": ["SAMPLE_SMILES", "MTD at 18 days (mg/kg)"],
 "data": [
  ["CC(=O)OC[C@]12CC[C@H]3[C@@H](CC=C4CC=CC(=O)[C@@]43C)[C@]1(O)CC[C@@]2(O)[C@@](C)(O)[C@H]1CC(C)=C(C)C(=O)O1", 50]
]}

---

# ASSAY_NAME: Tmax in SCID mouse at 50 mg/kg, ip
# Format: ADME, organism-based
# CONDITION_CONTEXT: in vivo
ASSAY_METRIC: Tmax (min)

{"columns": ["SAMPLE_SMILES", "VALUE_REPORTED"],
 "data": [
  ["CC(=O)OC[C@]12CC[C@H]3[C@@H](C[C@H]4O[C@]45CC=CC(=O)[C@]35C)[C@]1(O)CC[C@@]2(O)[C@@](C)(O)[C@H]1CC(C)=C(C)C(=O)O1", 15]
]}

---

Overview of reported IC50 across a group of compounds:
# TARGET_OF_ASSAY: Androgen receptor (Homo sapiens, UniProt P10275)
# Sequence (P10275 whole entry): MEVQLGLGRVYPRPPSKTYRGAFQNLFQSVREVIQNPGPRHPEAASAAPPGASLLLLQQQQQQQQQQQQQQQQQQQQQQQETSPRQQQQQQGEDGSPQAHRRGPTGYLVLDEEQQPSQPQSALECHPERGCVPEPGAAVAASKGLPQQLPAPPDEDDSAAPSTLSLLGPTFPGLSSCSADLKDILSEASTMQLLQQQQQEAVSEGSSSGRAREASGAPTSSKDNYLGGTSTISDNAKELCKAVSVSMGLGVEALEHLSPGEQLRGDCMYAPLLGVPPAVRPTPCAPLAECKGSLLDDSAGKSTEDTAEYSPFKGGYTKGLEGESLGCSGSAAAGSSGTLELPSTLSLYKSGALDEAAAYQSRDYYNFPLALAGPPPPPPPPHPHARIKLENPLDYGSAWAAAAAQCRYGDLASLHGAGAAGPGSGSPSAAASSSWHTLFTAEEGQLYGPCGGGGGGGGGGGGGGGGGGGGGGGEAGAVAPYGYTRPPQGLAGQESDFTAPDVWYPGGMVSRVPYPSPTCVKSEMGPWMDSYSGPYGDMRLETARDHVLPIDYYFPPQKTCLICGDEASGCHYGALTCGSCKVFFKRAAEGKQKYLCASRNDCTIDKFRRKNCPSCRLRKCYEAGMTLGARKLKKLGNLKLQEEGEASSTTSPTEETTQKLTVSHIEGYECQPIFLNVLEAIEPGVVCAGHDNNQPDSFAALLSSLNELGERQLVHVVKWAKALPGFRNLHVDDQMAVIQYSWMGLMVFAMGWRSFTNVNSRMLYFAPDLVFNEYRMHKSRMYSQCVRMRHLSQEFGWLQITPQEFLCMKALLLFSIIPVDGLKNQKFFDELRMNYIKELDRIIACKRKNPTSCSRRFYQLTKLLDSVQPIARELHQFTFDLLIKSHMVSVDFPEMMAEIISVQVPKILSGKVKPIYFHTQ
# ASSAY_NAME: Inhibition of androgen receptor in human LNCAP cells assessed as inhibition of DHT-induced KLK3 gene expression by Array Plate assay
# Format: cell-based

{"columns": ["SAMPLE_SMILES", "IC50"],
 "data": [
  ["CC(=O)OC[C@]12CC[C@H]3[C@@H](CC=C4CC=CC(=O)[C@@]43C)[C@]1(O)CC[C@@]2(O)[C@@](C)(O)[C@H]1CC(C)=C(C)C(=O)O1", "0.75 µM"],
  ["CC(=O)OC[C@]12CC[C@H]3[C@@H](CC=C4C=CCC(=O)[C@@]43C)[C@]1(O)[C@@H](OC(C)=O)C[C@@]2(O)[C@@](C)(O)[C@H]1CC(C)=C(C)C(=O)O1", "1.42 µM"],
  ["CC(=O)OC[C@]12CC[C@H]3[C@@H](CC=C4C=CCC(=O)[C@@]43C)[C@]1(O)CC[C@@]2(O)[C@@](C)(O)[C@H]1CC(C)=C(C)C(=O)O1", "3.52 µM"],
  ["CC(=O)OC[C@]12CC[C@H]3[C@@H](CC=C4CC=CC(=O)[C@@]43C)[C@]1(O)[C@@H](OC(C)=O)C[C@@]2(O)[C@@](C)(O)[C@H]1CC(C)=C(C)C(=O)O1", "3.58 µM"]
]}

---

# Test system: PC-3
# ASSAY_NAME: Cytotoxicity against human PC3 cells assessed as inhibition of cell proliferation/survival after 72 hrs by resazurin dye reduction assay
# Type: functional, cell-based
# CONDITION_CONTEXT: PC-3, 72 h
Entries and their IC50 values follow.
ASSAY_METRIC: IC50 (nM)

{"columns": ["COMPOUND", "TARGET_OF_ASSAY", "UNITS", "OPERATOR_SYMBOL", "VALUE_REPORTED"],
 "data": [
  ["COc1cccc2c1C(=O)c1c(O)c3c(c(O)c1C2=O)C[C@@](O)(C(=O)CO)C[C@@H]3O[C@H]1C[C@H](N)[C@H](O)[C@H](C)O1 [DOXORUBICIN]", "PC-3", "nM", "=", 250],
  ["CC(=O)OC[C@]12CC[C@H]3[C@@H](C[C@@H]4O[C@@]45CC=CC(=O)[C@]35C)[C@]1(O)CC[C@@]2(O)[C@@](C)(O)[C@H]1CC(C)=C(C)C(=O)O1", "PC-3", "nM", "=", 1200],
  ["CC(=O)OC[C@]12CC[C@H]3[C@@H](CC=C4CC=CC(=O)[C@@]43C)[C@]1(O)[C@@H](OC(C)=O)C[C@@]2(O)[C@@](C)(O)[C@H]1CC(CO)=C(C)C(=O)O1", "PC-3", "nM", ">", 5000],
  ["CC1=C(CO)C(=O)O[C@@H]([C@@H](C)[C@H]2CC[C@H]3[C@@H]4C[C@H]5O[C@]56[C@@H](O)C=CC(=O)[C@]6(C)[C@H]4CC[C@]23C)C1 [WITHAFERIN A]", "PC-3", "nM", "=", 410],
  ["CC(=O)OC[C@]12CC[C@H]3[C@@H](CC=C4C=CCC(=O)[C@@]43C)[C@]1(O)[C@@H](OC(C)=O)C[C@@]2(O)[C@@](C)(O)[C@H]1CC(C)=C(C)C(=O)O1", "PC-3", "nM", ">", 5000]
]}
